Catalogue of IC50 values
biological target: recombinant eIF4E (Homo sapiens (Human)); assay: Fluorescence polarization competition assay for eIF4E binding potency; conditions: inhibition of eIF4E/EDA-m7GDP-ATTO-550 binding; calculated IC50 values, Table 4B; read-out: IC50
Sequence (P06730 whole entry): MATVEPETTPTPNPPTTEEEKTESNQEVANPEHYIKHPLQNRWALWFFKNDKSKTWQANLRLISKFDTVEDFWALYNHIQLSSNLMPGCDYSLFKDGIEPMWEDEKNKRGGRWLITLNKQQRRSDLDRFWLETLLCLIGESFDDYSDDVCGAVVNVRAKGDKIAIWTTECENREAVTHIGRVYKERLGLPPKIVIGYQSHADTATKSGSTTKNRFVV
Enter your answer as a number in nM; do not include the unit.

Look over these answered cases.
MOLECULE	TARGET_ENTITY	IC50, nM
Cc1nc2cnc(C#CC3CCCN3C3CC3)c(C#N)c2c(=O)n1CCOc1ccc(Cl)cc1-c1ccnc2c(C(=O)O)csc12 (stereo not shown) [compound 1344]	recombinant eIF4E (Homo sapiens (Human))	18.3
Cc1nc2cnc(N(C)CC3CN(CC(F)F)C3)c(C#N)c2c(=O)n1CC#Cc1ccc(Cl)cc1-c1ccnc2c(C(=O)O)csc12 [compound 1542]	recombinant eIF4E (Homo sapiens (Human))	18.6

Lab note: next molecule to report on.
# return recorded IC50 for input Cc1cccc(S(=O)(=O)NC(=O)c2csc3c(-c4cc(Cl)ccc4C#CCn4c(C)nc5cnc(N(C)C6CCN(CC(C)(F)F)CC6)c(C#N)c5c4=O)ccnc23)n1 [compound 1678] 28
